Where do these numbers come from? They come from BindingDB's records for doi:10.1021/jm970104t.

pIC50 listing for selected compounds.
- measurementTarget: HCMV protease (Human cytomegalovirus)
- assayText: Micro molar potency to inhibit human cytomegalovirus (HCMV) protease
pIC50: −log10 of the molar value. Where a SMILES comes first, the peptide text is derived from it. [ ]: non-standard residue; d: D form. The star is where a group is joined. ξ: configuration not given here. Tle = CC(C)(C)[C@H](N)C(=O)O; ξNva = CCCC(N)C(=O)O; ξA = CC(N)C(=O)O; CF3 = FC(F)(F)*
parameter: pIC50

compound="CC(NC(=O)[C@H](CC(=O)N(C)C)NC(=O)[C@@H](N)C(C)(C)C)C(=O)C(F)(F)F (stereo partly specified) (H-[Tle]-Asp(NMe2)-[ξA]-CF3)" parameter=pIC50 resultcomparator== endpointresult=4.92
compound=CN(C)C(=O)C[C@H](NC(=O)[C@@H](NC(=O)CC(C)(C)C)C(C)(C)C)C(=O)N[C@H]1CN(OCc2ccccc2)C1=O parameter=pIC50 resultcomparator== endpointresult=4.48
compound="CC(NC(=O)[C@H](CC(=O)N(C)C)NC(=O)[C@@H](NC(=O)CC(C)(C)C)C(C)(C)C)C(=O)C(=O)N(C)C (stereo partly specified)" parameter=pIC50 resultcomparator=< endpointresult=3.52
compound="CC(NC(=O)[C@H](CC(=O)N(C)C)NC(=O)[C@@H](O)C(C)(C)C)C(=O)C(F)(F)F (stereo partly specified)" parameter=pIC50 resultcomparator== endpointresult=4.70
compound="CCCC(NC(=O)[C@H](CC(N)=O)NC(=O)[C@@H](NC(=O)[C@@H](NC(C)=O)C(C)C)C(C)C)C(=O)C(F)(F)F (stereo partly specified) (Ac-VVN[ξNva]-CF3)" parameter=pIC50 resultcomparator=< endpointresult=3.52
compound="Cc1ccc2nc(C(=O)C(C)NC(=O)[C@H](CC(=O)N(C)C)NC(=O)[C@@H](NC(=O)CC(C)(C)C)C(C)(C)C)oc2c1 (stereo partly specified)" parameter=pIC50 resultcomparator== endpointresult=6.22
